# measured on: T1, human IL-1α (human, UniProt P01583 113-271)
# T1 construct: also called IL-1alpha; hIL-1α
# T1 sequence (looked up): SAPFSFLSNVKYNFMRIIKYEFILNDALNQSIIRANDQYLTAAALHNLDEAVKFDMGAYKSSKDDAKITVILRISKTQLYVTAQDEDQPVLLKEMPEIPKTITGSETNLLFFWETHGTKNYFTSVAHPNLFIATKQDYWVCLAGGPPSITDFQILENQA
# assay remarks: Table 62 IC50; RBA presumed
pIC50: −log10 of the molar value.
property label: pIC50

Sample answers from the record:
Prompt: Please list pIC50 recorded for the binder ABT1-95-10 (other, VK dAb) VL: DIQMTQSPSSLSASVGDRVTITCRASQPIQGNLRWYQQKPGKAPKLLIYSSSYLERGVPSRFSGSGSGTDFTLTISSLHPEDLATYHCQQGYRWPVTFGQGTKVEIKR
Response: 9.10

Prompt: Please list pIC50 recorded for the binder ABT1-95-126 (other, VK dAb) VL: DIQMTQSPSSLSASVGDRVTITCRASQPIVRNLRWYQQKPGKAPKLLIYSSSYLEPGVPSRFSGSGSGTDFTLTISSLQPEDFATYHCQQGYRWPSTFGQGTKVEIKR
Response: 9.10

I: ABT1-95-57 (other, VK dAb) VL: DIQMTQSPSSLSASVGDRVTITCRASQPIVENLRWYQQKPGKAPKLLIYSSSYLEPGVPSRFSGSGSGTDFTLTISSLQPEDFATYHCQQGYRWPVTFGQGTKVEIKR
II: ABT1-141-47 (other, VK dAb) VL: DIQMTQSPSSLSASVGDRVTITCRANQWIQKQLAWYQQKPGKAPKLLIYSSSHLQSGVPSRFSGSGSGTDFTLTISSLQPQDFATYYCQQHLRVPMTFGQGTKVEIKR
Prompt: Given I and given II , which shows the smaller recorded pIC50? Lab note: record the label of whichever item you select.
Response: II
